# METHOD NOTES: Bidirectional transport (Papp) across Caco-2 cell monolayer
# Assay type: in vitro ADME, human
# EXPERIMENTAL CONDITIONS: human; Caco-2 monolayer, 50 µM, incubation up to 90 min, n = 3
Exercise: state measured Papp A→B at 90 min, 50 µM for each of the compounds provided.
Form entry: value (×10⁻⁶ cm/s) — number only.

Reported Papp A→B at 90 min, 50 µM, compound "COc1c(/C=C/C(=O)c2ccc(O)cc2)ccc(O)c1CC=C(C)C" : ____
22.5

Reported Papp A→B at 90 min, 50 µM, compound "O=C1C[C@@H](c2ccc(O)cc2)Oc2cc(O)ccc21" : ____
17.8

Reported Papp A→B at 90 min, 50 µM, compound "CC1(C)[C@@H](O)CC[C@]2(C)[C@H]3C(=O)C=C4[C@@H]5C[C@@](C)(C(=O)O)CC[C@]5(C)CC[C@@]4(C)[C@]3(C)CC[C@@H]12" : ____
12.6

Reported Papp A→B at 90 min, 50 µM, compound "COc1c(/C=C/C(=O)c2ccc(O)cc2)ccc(O)c1O" : ____
24.7
